Target: T1, Fc tagged human TNFR2 (Sino Biological) (human, UniProt P20333 23-257)
T1 construct: Bought reagent; also called hTNFR2; hTNFR2-Fc; not shown: Fc tag of the bought protein
T1 sequence (looked up): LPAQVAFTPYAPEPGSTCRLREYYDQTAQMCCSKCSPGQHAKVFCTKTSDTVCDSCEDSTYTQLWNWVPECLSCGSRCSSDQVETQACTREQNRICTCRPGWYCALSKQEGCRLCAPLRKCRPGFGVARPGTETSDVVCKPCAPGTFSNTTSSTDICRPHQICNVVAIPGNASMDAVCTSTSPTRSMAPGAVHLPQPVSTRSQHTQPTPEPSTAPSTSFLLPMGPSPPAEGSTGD
Assay: SPR (Biacore T200) single cycle kinetics, Fc-tagged receptor captured on Protein A chip, TNF protein as analyte at 1.67-15 nM
Metric Name: binding result

mouse TNF (mTNF), soluble protein expressed from pANT65 (ligand, UniProt P06804 80-235, looked up, not shown: C-terminal FLAG tag and His6 tag from vector pANT65) LRSSSQNSSDKPVAHVVANHQVEEQLEWLSQRANALLANGMDLKDNQLVVPADGLYLVYSQVLFKGQGCPDYVLLTHTVSRFAISYQEKVNLLSAVKSPCPKDTPEGAELKPWYEPIYLGGVFQLEKGDQLSAEVNLPKYLDFAESGQVYFGVIAL :: binds
